Field: MIC. Provide a value for each of the compounds that follow.
System: Staphylococcus aureus
Assay: Antibacterial activity against Methycillin-resistant Staphylococcus aureus ATCC 43300 assessed as inhibition of bacterial growth measured after 24 hrs by broth dilution method
Format: functional
Form field: result (number plus unit)

Value of measured MIC for the entry `C=C[C@]1(C)C[C@@H](OC(=O)CSc2nnc(C)n2/N=C/c2cccc(C#N)c2)[C@]2(C)[C@H](C)CC[C@]3(CCC(=O)[C@H]32)[C@@H](C)[C@@H]1O` : 1 µg/mL

Value of measured MIC for the entry `C=C[C@]1(C)C[C@@H](OC(=O)CSc2nnc(C)n2/N=C/c2ccc(O)cc2)[C@]2(C)[C@H](C)CC[C@]3(CCC(=O)[C@H]32)[C@@H](C)[C@@H]1O` : 0.25 µg/mL

Batch request: MIC for each of the following compounds.
1. C=C[C@]1(C)C[C@@H](OC(=O)CSc2nnc(C)n2/N=C/c2ccc(N(C)C)cc2)[C@]2(C)[C@H](C)CC[C@]3(CCC(=O)[C@H]32)[C@@H](C)[C@@H]1O
2. C=C[C@]1(C)C[C@@H](OC(=O)CSc2nnc(C)n2/N=C/c2ccc(N3CCCC3)cc2)[C@]2(C)[C@H](C)CC[C@]3(CCC(=O)[C@H]32)[C@@H](C)[C@@H]1O
3. C=C[C@]1(C)C[C@@H](OC(=O)CSc2nnc(C)n2/N=C/c2ccccc2F)[C@]2(C)[C@H](C)CC[C@]3(CCC(=O)[C@H]32)[C@@H](C)[C@@H]1O

1. 0.5 µg/mL
2. 1 µg/mL
3. 0.5 µg/mL

###

Tested on: RAW264.7
Assay: Cytotoxicity against mouse RAW264.7 cells assessed as reduced cell viability at 4 ug/ml measured after 16 hrs by MTT assay
Format: cell-based
Conditions: raw264.7, 16 h, dose 4 µg/ml
measured.property: Activity

Value of measured Activity for the entry `C=C[C@]1(C)C[C@@H](OC(=O)CSc2nnc(C)n2/N=C/c2ccccc2Cl)[C@]2(C)[C@H](C)CC[C@]3(CCC(=O)[C@H]32)[C@@H](C)[C@@H]1O` : Non-Toxic

Value of measured Activity for the entry `C=C[C@]1(C)C[C@@H](OC(=O)CSc2nnc(C)n2/N=C/c2ccccc2F)[C@]2(C)[C@H](C)CC[C@]3(CCC(=O)[C@H]32)[C@@H](C)[C@@H]1O` : Non-Toxic

Value of measured Activity for the entry `C=C[C@]1(C)C[C@@H](OC(=O)CSc2nnc(C)n2/N=C/c2cccc(O)c2)[C@]2(C)[C@H](C)CC[C@]3(CCC(=O)[C@H]32)[C@@H](C)[C@@H]1O` : Non-Toxic

###

Field: MBC. Provide a value for each of the compounds that follow.
System: Staphylococcus aureus
Experiment: Bactericidal activity against Methycillin-resistant Staphylococcus aureus ATCC 43300 assessed as inhibition of bacterial growth measured after 96 hrs by broth dilution method
Assay type: functional
Give bare numbers, in µg/mL.

Consider the following illustrative entries.
Value of measured MBC for the entry `C=C[C@]1(C)C[C@@H](OC(=O)CSc2nnc(C)n2/N=C/c2ccc(N3CCCC3)cc2)[C@]2(C)[C@H](C)CC[C@]3(CCC(=O)[C@H]32)[C@@H](C)[C@@H]1O` : 2

Value of measured MBC for the entry `C=C[C@]1(C)C[C@@H](OC(=O)CSc2nnc(C)n2/N=C/c2cccc(C#N)c2)[C@]2(C)[C@H](C)CC[C@]3(CCC(=O)[C@H]32)[C@@H](C)[C@@H]1O` : 2

Value of measured MBC for the entry `C=C[C@]1(C)C[C@@H](OC(=O)CSc2nnc(C)n2/N=C/c2ccc([N+](=O)[O-])cc2)[C@]2(C)[C@H](C)CC[C@]3(CCC(=O)[C@H]32)[C@@H](C)[C@@H]1O` : 2

Batch request: MBC for each of the following compounds.
1. C=C[C@]1(C)C[C@@H](OC(=O)CSc2nnc(C)n2/N=C/c2ccc(C)cc2)[C@]2(C)[C@H](C)CC[C@]3(CCC(=O)[C@H]32)[C@@H](C)[C@@H]1O
2. C=C[C@]1(C)C[C@@H](OC(=O)CSc2nnc(C)n2/N=C/c2ccccc2O)[C@]2(C)[C@H](C)CC[C@]3(CCC(=O)[C@H]32)[C@@H](C)[C@@H]1O

1
1

Batch request: MBC for each of the following compounds.
1. C=C[C@]1(C)C[C@@H](OC(=O)CSc2nnc(C)n2/N=C/c2cccc(O)c2)[C@]2(C)[C@H](C)CC[C@]3(CCC(=O)[C@H]32)[C@@H](C)[C@@H]1O
2. C=C[C@]1(C)C[C@@H](OC(=O)CSc2nnc(C)n2/N=C/c2ccccc2)[C@]2(C)[C@H](C)CC[C@]3(CCC(=O)[C@H]32)[C@@H](C)[C@@H]1O
3. C=C[C@]1(C)C[C@@H](OC(=O)CSCCN(CC)CC)[C@]2(C)[C@H](C)CC[C@]3(CCC(=O)[C@H]32)[C@@H](C)[C@@H]1O [TIAMULIN]
4. C=C[C@]1(C)C[C@@H](OC(=O)CSc2nnc(C)n2/N=C/c2cccc(Cl)c2)[C@]2(C)[C@H](C)CC[C@]3(CCC(=O)[C@H]32)[C@@H](C)[C@@H]1O
5. C=C[C@]1(C)C[C@@H](OC(=O)CSc2nnc(C)n2/N=C/c2ccccc2F)[C@]2(C)[C@H](C)CC[C@]3(CCC(=O)[C@H]32)[C@@H](C)[C@@H]1O
6. C=C[C@]1(C)C[C@@H](OC(=O)CSc2nnc(C)n2/N=C/c2ccc(F)cc2)[C@]2(C)[C@H](C)CC[C@]3(CCC(=O)[C@H]32)[C@@H](C)[C@@H]1O

1
1
1
2
1
2
